Provenance of the data: the METLIN SMRT retention time set (Domingo-Almenara et al. 2019)

RP-LC retention time values by entry
Assay: gradient 5% acetonitrile 3 min, to 50% in 2 min, to 85% in 15 min, held 3 min, 100 µL/min
Conditions: column: Zorbax Extend-C18 2.1 x 50 mm; eluents: water / acetonitrile, 0.1% formic acid
Reported Property: RP-LC retention time

                                   compound  measurement
0  O=C(NCc1ccccn1)C1CCN(C(=O)c2ncn3c2COC(c2ccc(Cl)cc2)C3)CC1 (stereo not drawn)        644 s
1  COc1ccc(C2(C(=O)Nc3cc(-c4ccsc4)no3)CC2)cc1       1030 s
2  COc1ccc(C(=O)N2c3ccccc3NC3=C(C(=O)CCC3)C2c2ccco2)cc1 (stereo not drawn)        762 s
3  O=S(=O)(c1ccc(-c2noc(-c3ccc(F)c(F)c3)n2)cc1)N1CCCC1       1210 s
4  CC1CCC(C(=O)NC(Cc2c[nH]c3ccccc23)C(=O)Nc2ccncc2)CC1 (stereo not drawn)        668 s
5   Cc1ccc(-c2nc(-c3ccc4nnn(C)c4c3)no2)cc1C       1170 s
6  C=CC(=O)Nc1ccc2ncnc(Nc3ccc(OCc4cccc(F)c4)c(Cl)c3)c2c1        825 s
7   COC(=O)c1c(NCC(C)C)c2cccc(Cl)c2[nH]c1=O        792 s

====

Listed next: entries and their corresponding RP-LC retention time.
Experiment: gradient 5% acetonitrile 3 min, to 50% in 2 min, to 85% in 15 min, held 3 min, 100 µL/min
Settings: column: Zorbax Extend-C18 2.1 x 50 mm; eluents: water / acetonitrile, 0.1% formic acid
Reported Property: RP-LC retention time (s)

In [3]: df
Out[3]:
                                   compound  units_symbol  measurement
0  CCOC(=O)Cc1ccc(NC(=O)NC2CCN(c3ccc(C)c(C)c3)C2=O)cc1 (centres undefined)             s          877
1  COc1ccc(-c2c(C)noc2NC(C)=O)cc1S(=O)(=O)Nc1ccc(Cl)cc1             s          766
2  CCOC(=O)c1cccc(NS(=O)(=O)c2cc(-c3cc(C)[nH]n3)ccc2C)c1             s          866
3  Cc1ccc(NC(=O)Cn2cccc2-c2nnc(C3CCC3)o2)cc1C             s          985
4  COc1ccc(OCc2nc(C3CN(C(=O)C4(c5ccccc5)CC4)C3)no2)cc1             s          904
5   Cc1nn(-c2nc(CC(=O)N3CCCCC3)cs2)c(C)c1Cl             s         1050
6  COc1ccccc1CNC1=NCCNC12CCN(S(=O)(=O)c1ccccc1C)CC2             s          732
7  Cc1ccc(CN2C(=O)COc3ccc(C(=O)NC(C)(C)C)cc32)cc1             s          910
8     Cc1ccc(C(=O)NCc2nn(C)c3ccccc23)c(C)c1             s          857

====

This section presents molecules with their documented RP-LC retention time values.
Assay: gradient 5% acetonitrile 3 min, to 50% in 2 min, to 85% in 15 min, held 3 min, 100 µL/min
Conditions: column: Zorbax Extend-C18 2.1 x 50 mm; eluents: water / acetonitrile, 0.1% formic acid
Reported Property: RP-LC retention time

>>> df
                                   molecule     reported_property  measurement
0  Cc1ccc(S(=O)(=O)N2CCCC(CCC(=O)NCc3ccccn3)C2)cc1 (stereo not drawn)  RP-LC retention time        656 s
1            CC(C)CCNC(=O)Cc1cn(C)c2ncccc12  RP-LC retention time        679 s
2  O=C(N[C@H](Cc1ccccc1)C(=O)NCc1cscn1)c1cccc(F)c1  RP-LC retention time        762 s
